protocolNotes: Particle size and PDI of lipid nanoparticles by dynamic light scattering
Assay type: physicochemical
experimentalSetup: lipid nanoparticles with luciferase mRNA; ionizable lipid/cholesterol/DSPC/DMG-PEG2000 50/38.5/10/1.5 mol%
Measured Particle-size distribution (PDI) values are reported for all entries that follow.
assayEndpoint: Particle-size distribution (PDI)

> print(dat)
                                    compound  assayvalue
 1  CCCCCCCCCCCC(=O)OCC(C)(C)CCCCCN(CCO)CCCCCCCCC(=O)OCC(CCCCCCCC)CCCCCCCC [98b]        0.18
 2  CCCCCCCCCC(=O)OCCCC(C)(C)CCCN(CCCO)CCCCCCCCC(=O)OCC(CCCCCC)CCCCCC [112b]        0.17
 3  CCCCCCCCCC(=O)OCC(C)(C)CCCCCN(CCO)CCCCCCCC(=O)OCCC(CCCCCC)CCCCCC [10b]       0.052
 4  CCCCCCCCCOC(=O)CCCCCCCN(CCCO)CCCCCCC(C)(C)C(=O)OC(CCCCCCCC)CCCCCCCC [4a]       0.005
 5  CCCCCCCCCOC(=O)OCCCCCCN(CCO)CCCCCCC(C)(C)C(=O)OCCCC(CCCCC)CCCCC [35a]        0.22
 6  CCCCCCCCCCCOC(=O)CCCCC(C)(C)CCN(CCO)CCCCCCCC(=O)OC(CCCCCCCCCC)CCCCCCCCCC [64a]        0.15
 7  CCCCCCCCCC(=O)OCCCC(C)(C)CCCN(CCCO)CCCCCCC(=O)OCCCC(CCCCCC)CCCCCC [83b]        0.10
 8  CCCCCCCCCOC(=O)OCCCCCCN(CCO)CCCCCCC(C)(C)C(=O)OCCC(CCCCCC)CCCCCC [34a]        0.12
 9  CCCCCCCCCCC(=O)OCC(C)(C)CCCCCN(CCCCCCCC(=O)OC(CCCCCCCCC)CCCCCCCCC)C(=O)SCCCN(C)C [39b]        0.07
10  CCCCCCCCCCC(=O)OCCC(C)(C)CCCCN(CCO)CCCCCCCC(=O)OCC(CCCCCCCC)CCCCCCCC [99b]        0.15
11  CCCCCCCCCCC(=O)OCC(C)(C)CCCCCN(CCCO)CCCCCCC(=O)OCC(CCCCCCCCC)CCCCCCCCC [85b]        0.17
12  CCCCCCCCCCCC(=O)OCC(C)(C)CCCCCN(CCCCO)CCCCCCC(=O)OCC(CCCCCCCCCC)CCCCCCCCCC [91b]        0.12
13  CCCCCCCCCC(=O)OCCC(C)(C)CCCCCN(CCO)CCCCCCC(=O)OCC(CCCCCCCCC)CCCCCCCCC [106b]        0.15
14  CCCCCCCCCOC(=O)C(C)(C)CCCCCCN(CCO)CCCCCCOC(=O)OCC(CCCCCCC)CCCCCCC [40a]        0.18
15  CCCCCCCCCC(=O)OCCCC(C)(C)CCCN(CCCO)CCCCCCC(=O)OCCC(CCCCCCC)CCCCCCC [92b]        0.15
16  CCCCCCCCCCOC(=O)OCCCCCCN(CCO)CCCCCC(C)(C)COC(=O)CC(CCCCCCC)CCCCCCC [27b]        0.18
17  CCCCCCCCCCOC(=O)CCCCC(C)(C)CCN(CCCCO)CCCCCCCC(=O)OC(CCCCCCCCC)CCCCCCCCC [67a]        0.06
